# assayTarget: glucosylceramide synthase (GCS) (Homo sapiens (Human), UniProt Q16739)
# Sequence (Q16739 whole entry): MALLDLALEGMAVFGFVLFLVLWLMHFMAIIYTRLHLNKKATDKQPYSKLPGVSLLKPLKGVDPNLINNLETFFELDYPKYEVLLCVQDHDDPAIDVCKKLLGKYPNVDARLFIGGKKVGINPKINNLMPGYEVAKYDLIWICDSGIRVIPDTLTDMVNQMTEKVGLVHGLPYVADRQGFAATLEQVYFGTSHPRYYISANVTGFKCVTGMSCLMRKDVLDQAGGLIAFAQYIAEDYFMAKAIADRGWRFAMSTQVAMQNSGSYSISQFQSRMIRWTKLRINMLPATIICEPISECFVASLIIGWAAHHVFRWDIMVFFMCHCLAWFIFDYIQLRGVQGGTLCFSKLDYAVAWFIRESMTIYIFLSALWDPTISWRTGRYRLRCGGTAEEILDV
# assayMethodText: UDP-Glo glucosylceramide synthase biochemical assay
# measurementSetup: endogenous GCS in Golgi preparations isolated from human A375 malignant melanoma skin cells; UDP detection by luminescence
# log10(IC50) listing for each entry below
Values reflect log10 of reported IC50 (nM).

Worked set:
compound	measuredAttribute	reportedResult
N#Cc1cnc(C2CC2)nc1OC1CCc2ccc(C(F)(F)F)cc21 (stereo not shown)	log10(IC50)	1.36
N#Cc1cnc(C2CC2)nc1OC[C@H]1CCN(c2ccnc(OC3CC3)c2)C1	log10(IC50)	3.49
N#Cc1ccc(N2CC[C@H](COc3nc(C4CC4)ncc3C#N)C2)cc1F	log10(IC50)	2.66
N#Cc1cnc(C2CC2)nc1OC[C@H]1CCN(c2ccc(OC(F)F)cn2)C1	log10(IC50)	2.17
N#Cc1cnc(C2CC2)nc1OC[C@H]1CCN(c2cccc3ncccc23)C1	log10(IC50)	3.31

IN: Report log10(IC50) for N#Cc1cnc(C2CC2)nc1NC1CCCc2sc(C3CCCCC3)nc21 (stereo not shown) please.
OUT: 1.15

IN: Report log10(IC50) for N#Cc1cnc(C2CC2)nc1NC1CCCc2sc(C3CCC3)nc21 (stereo not shown) please.
OUT: 1.66

IN: Report log10(IC50) for `CNC(=O)[C@]12CN(c3nc(C4CC4)ncc3C#N)C[C@H]1C(c1ccc(C)cc1)=NO2` please.
OUT: 2.32

IN: Report log10(IC50) for `OCc1c(Cl)nc(C2CC2)nc1N1Cc2nc(Br)sc2C1` please.
OUT: 3.51

IN: Report log10(IC50) for `N#Cc1cnc(C2CC2)nc1N1CCC2(CC1)NC(=O)Nc1ccccc12` please.
OUT: 3.04

IN: Report log10(IC50) for `N#Cc1cnc(C2CC2)nc1OC[C@H]1CCN(c2ccc(C(F)(F)F)cn2)C1` please.
OUT: 1.60

IN: Report log10(IC50) for `N#Cc1cnc(C2CC2)nc1OC1CN(Cc2ccc(F)cc2)C1` please.
OUT: 3.60

IN: Report log10(IC50) for `CN(C[C@H]1CCN(c2ccc(-n3cccn3)nc2)C1)c1nc(C2CC2)ncc1C#N` please.
OUT: 3.27

IN: Report log10(IC50) for `CC(C)c1nc(-c2cccnc2N2CCN(c3nc(C4CC4)ncc3C#N)CC2)no1` please.
OUT: 1.68

* * *

# assayTarget: glucosylceramide synthase (GCS) (Homo sapiens (Human))
# assayMethodText: UDP-Glo glucosylceramide synthase biochemical assay
# measurementSetup: endogenous GCS in Golgi preparations isolated from human A375 malignant melanoma skin cells; UDP detection by luminescence
measuredAttribute: pIC50
Keep in mind that pIC50 stands for -log10 of concentration in molar terms.

compound	measuredAttribute	reportedResult
N#Cc1cnc(C2CC2)nc1N1C[C@@H]2C[C@H]1CN2Cc1ccc(Cl)cc1 [Compound 89]	pIC50	6.45
COc1cccc(N2CC[C@H](COc3nc(C4CC4)ncc3C#N)C2)n1 [Compound 12]	pIC50	6.28
N#Cc1cnc(C2CC2)nc1N1CCC(N2CCN(Cc3ccc(F)cc3)S2(=O)=O)CC1 [Compound 78]	pIC50	5.75
OCc1cnc(C2CC2)nc1OCC1CCN(c2ccc(C(F)(F)F)nc2)CC1 [Compound 5]	pIC50	5.47
OCc1cnc(C2CC2)nc1OC[C@@H]1CCN(c2ccc(C(F)(F)F)nc2)C1 [Compound 2]	pIC50	6.25
N#Cc1cnc(C2CC2)nc1N1CCCC(c2cc3cccnc3[nH]2)C1 (stereo not shown) [Compound 76]	pIC50	5.83

IN: Report pIC50 for Cc1cnc(N2CC[C@H](COc3nc(C4CC4)ncc3C#N)C2)c(C)c1 [Compound 17] please.
OUT: 5.99

IN: Report pIC50 for N#Cc1cnc(C2CC2)nc1NC1CCCc2sc(C3CCCC3)nc21 (stereo not shown) [Compound 95] please.
OUT: 7.72

IN: Report pIC50 for N#Cc1cnc(C2CC2)nc1OC[C@H]1CCN(c2cccc3cnccc23)C1 [Compound 33] please.
OUT: 5.85

IN: Report pIC50 for CNC(=O)C12CN(c3nc(C4CC4)ncc3C#N)CC1C(c1ccc(C)cc1)=NO2 (stereo not shown) [Compound 85] please.
OUT: 6.77

IN: Report pIC50 for N#Cc1cnc(C2CC2)nc1OC[C@@H]1C[C@H]1c1ccc(F)cn1 [Compound 62] please.
OUT: 6.01

IN: Report pIC50 for N#Cc1cnc(C2CC2)nc1N1CCN(Cc2ccccc2)C[C@@H]1COCc1ccccc1 [Compound 79] please.
OUT: 5.49

IN: Report pIC50 for N#Cc1cnc(C2CC2)nc1N1CC2OCCN(Cc3ccccc3)C2C1 (stereo not shown) [Compound 86] please.
OUT: 6.03
